Target Desc: Human Ganglion (Homo sapiens, UniProt P30926+P32297)
Construct: endogenous in cells
Sequence (P32297 32-505): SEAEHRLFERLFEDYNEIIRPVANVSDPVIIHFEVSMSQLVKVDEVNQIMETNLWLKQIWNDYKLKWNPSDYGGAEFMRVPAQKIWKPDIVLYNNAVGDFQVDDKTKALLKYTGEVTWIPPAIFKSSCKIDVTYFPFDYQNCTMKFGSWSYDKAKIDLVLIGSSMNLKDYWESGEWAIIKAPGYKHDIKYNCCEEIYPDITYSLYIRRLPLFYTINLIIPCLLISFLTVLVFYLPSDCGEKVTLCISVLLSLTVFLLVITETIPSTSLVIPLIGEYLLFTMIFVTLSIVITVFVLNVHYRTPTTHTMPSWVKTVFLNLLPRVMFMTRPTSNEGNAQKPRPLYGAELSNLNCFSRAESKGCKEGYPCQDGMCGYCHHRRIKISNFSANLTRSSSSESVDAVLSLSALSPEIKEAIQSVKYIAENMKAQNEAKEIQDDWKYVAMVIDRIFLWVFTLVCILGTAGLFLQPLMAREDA
Sequence (P30926 22-498): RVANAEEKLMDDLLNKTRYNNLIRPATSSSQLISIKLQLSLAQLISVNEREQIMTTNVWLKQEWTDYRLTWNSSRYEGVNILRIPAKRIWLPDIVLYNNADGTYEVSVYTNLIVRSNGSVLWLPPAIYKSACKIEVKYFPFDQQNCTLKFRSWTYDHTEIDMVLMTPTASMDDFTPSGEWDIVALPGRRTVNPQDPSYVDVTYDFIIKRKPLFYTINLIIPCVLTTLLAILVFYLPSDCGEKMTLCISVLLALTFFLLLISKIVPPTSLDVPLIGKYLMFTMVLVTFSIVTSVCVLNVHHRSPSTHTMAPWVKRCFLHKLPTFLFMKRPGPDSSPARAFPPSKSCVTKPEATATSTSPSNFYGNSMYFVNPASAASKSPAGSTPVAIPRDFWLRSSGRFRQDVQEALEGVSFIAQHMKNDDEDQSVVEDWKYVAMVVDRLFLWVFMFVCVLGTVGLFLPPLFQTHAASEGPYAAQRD
Assay Procedure: Competition binding to receptors in membrane preparations, human ganglion subtype ([3H]-epibatidine)
Experimental Readout: Ki (µM)
Give bare numbers, in µM.

1) CN[C@@H](C)C/C=C/c1cnc(Cl)c(O[C@H]2CCN(C(=O)C3CCCC3)C2)c1: 7.6
2) CN[C@@H](C)C/C=C/c1cncc(O[C@@H]2CCN(C(=O)C(C)(C)C)C2)c1: 21
3) CN[C@@H](C)C/C=C/c1cncc(O[C@H]2CCN(C(=O)COC)C2)c1: 21
4) CCNC(=O)N1CC[C@H](Oc2cncc(/C=C/C[C@H](C)NC)c2)C1: 250
5) CN[C@@H](C)C/C=C/c1cncc(O[C@@H]2CCN(C(=O)C3CCC3)C2)c1: 26
6) CN[C@@H](C)C/C=C/c1cncc(O[C@@H]2CCN(C(=O)c3ccco3)C2)c1: 50
7) CN[C@@H](C)C/C=C/c1cncc(O[C@@H]2CCN(C(=O)COC)C2)c1: 55
8) CN[C@@H](C)C/C=C/c1cncc(O[C@@H]2CCN(C(=O)c3ccc(F)cc3)C2)c1: 6.8

Next compound, please.
Give a short answer stating reported Ki for CN[C@@H](C)C/C=C/c1cncc(O[C@H]2CCN(C(=O)c3ccc(F)cc3)C2)c1 .
14

Cited source: patent US20150119378A1
